Test system: NCI-H460 lung
assayName: NCI-60 one-dose screen, 48 h (100 = growth as untreated, 0 = no growth, -100 = all killed)
cond: 10 µM unless noted
About 83,000 compounds went through this panel and 20% of them were active in at least one assay; those are over-represented in the sample as a whole. Activity calls are given as the source filed them. Rule for the calls: active = growth percent below 10; inactive = the rest.
measuredParameter: growth

>  <molecule>
Cc1csc2ccc(Cl)cc12

>  <testedTarget>
NCI-H460 lung

>  <growth>
106% (inactive)

$$$$
>  <molecule>
COc1ccc(-c2cn3c(ccc4ccccc43)n2)cc1

>  <testedTarget>
NCI-H460 lung

>  <growth>
97.7% (inactive)

$$$$
>  <molecule>
CC1CN(Cc2ccco2)C(=S)N(c2ccccc2)C1=O (stereo unspecified)

>  <testedTarget>
NCI-H460 lung

>  <growth>
98.5% (inactive)

$$$$
>  <molecule>
O=S(=O)(NCCCNc1cc(-c2cn(-c3ccccc3)nc2-c2ccccc2)ccn1)c1ccc(C(F)(F)F)cc1

>  <testedTarget>
NCI-H460 lung

>  <growth>
50.7% (inactive)

$$$$
>  <molecule>
CCCCCCCCSC1=CC(=O)C(OC)=C(OC)C1=O

>  <testedTarget>
NCI-H460 lung

>  <growth>
45.9% (inactive)

$$$$

Proceeding to the next molecule to report its growth.
Qu. I have this molecule here, `Cc1ccc(Nc2nc(N)nc(Nc3ccc4ccccc4c3)n2)cc1` , and I need its recorded growth.
Ans. 14.6% (inactive)

Value source: PubChem BioAssay (NCI)
